assay: reversal of MRP1-mediated doxorubicin resistance, pilot screen, H69AR cells, doxorubicin co-treatment (AID 601); conditions: H69AR cells + 2 uM doxorubicin, CellTiter-Glo, 72 h; measured here: viability with 2 uM doxorubicin; at 10 µM; stronger effect = lower value
PROPERTY LABEL: viability (%)
# number only, unit % dropped from output

Request the reported viability associated with "CNC(=O)CN(C#N)c1nc(N(C)C)nc(N(C)C)n1"
90.2

Request the reported viability associated with CCCCc1ccc(NC(=O)N[C@H](C(=O)O)C(C)CC)cc1 (some centres not stated)
90.8

Request the reported viability associated with CC1CN(C(=O)c2scc3c2OCCO3)CC(C)O1 (configuration not stated)
91.9

Request the reported viability associated with "CCOC(=O)c1c(NC(=O)OC)sc(C(=O)N(C)C)c1C"
87.9

Request the reported viability associated with O=C(C1CCCN(S(=O)(=O)c2cccnc2)C1)N1CCN(c2ccccn2)CC1 (configuration not stated)
90.3

Request the reported viability associated with Cc1noc(COc2ccccc2OCC(O)CNC(C)(C)C)n1 (configuration not stated)
89.9

Request the reported viability associated with "Cc1cc(-n2c(C)cc(C(=O)CSc3nc4ccccc4c(=O)n3Cc3ccco3)c2C)no1"
89.7

---

test: reversal of MRP1-mediated doxorubicin resistance, pilot screen, H69AR cells, doxorubicin co-treatment (AID 601); conditions: H69AR cells, CellTiter-Glo, 72 h; compound alone cytotoxicity; at 10 µM
Answer each item with its documented viability.
# number only, unit % dropped from output

Request the reported viability associated with "O=C1CC(=O)N(Cc2cccs2)C(=O)N1"
101

Request the reported viability associated with COc1ccc2cc(CN(Cc3ccco3)C(c3nnnn3C3CCCCC3)C(C)C)c(=O)[nH]c2c1 (centres undefined)
33.1

Request the reported viability associated with "CCn1c(=O)n(CC(=O)N(C)Cc2ccccc2)c(=O)c2ccccc21"
91.8

Request the reported viability associated with "CCCNc1nc2c(c(=O)n(C)c(=O)n2C)n1Cc1cccc(C)c1"
95.6

Request the reported viability associated with CCOc1cc(-c2nc3ccccn3c2NCC2CCCO2)ccc1O (centres undefined)
40.7

Request the reported viability associated with O=C(Nc1ccc(Cl)cc1)C1CC=CCC1C(=O)OCC(F)(F)C(F)F (centres undefined)
94.6

Request the reported viability associated with "N[C@@H](Cc1ccccc1)c1nnc2sc(SCc3ccccc3)nn12"
87.9

Request the reported viability associated with "Nc1scc(-c2ccncc2)c1Cl"
96.2

Request the reported viability associated with "Cc1c(NC(=O)CSc2nnc3sc4ccccc4n23)c(=O)n(-c2ccccc2)n1C"
90.4

Request the reported viability associated with "CCCCOc1ccc(C(=O)Nn2cnnc2)cc1"
89.5

Request the reported viability associated with "Cc1cc(C2C(C#N)=C(N)SC(N)=C2C#N)c(C)s1"
94.7

Request the reported viability associated with "CCCCn1nnnc1SCC(=O)N1CCN(C(=O)c2ccco2)CC1"
93.6

Request the reported viability associated with "CC1CCN(S(=O)(=O)c2ccc3[nH]c(=O)cc(C(=O)O)c3c2)CC1"
105

Request the reported viability associated with CCOC(=O)C1CCCN(CCCc2ccccc2)C1 (centres undefined)
90.8

Request the reported viability associated with O=C(c1ccc(Cl)cc1)N(Cc1cccs1)C1CCS(=O)(=O)C1 (centres undefined)
89.2

Request the reported viability associated with "CCn1c(=O)c(C(=O)NCc2ccc(OC)cc2)c(O)c2ccccc21"
73.2

Request the reported viability associated with "Cn1c(C(=O)N2CCN(C(=O)c3ccco3)CC2)cc2c(=O)n3ccccc3nc21"
82.6

Request the reported viability associated with "COc1ccc(C(=O)c2ccccc2)c(O)c1"
106

Request the reported viability associated with "CS(=O)(=O)Nc1ccc(C(=O)NCc2ccco2)cc1"
103

Request the reported viability associated with Cc1cccc(NC(=O)c2cc3n(n2)C(C(F)(F)F)CC(c2ccc4c(c2)OCO4)N3)c1 (centres undefined)
73.9

Request the reported viability associated with "Cc1ccc(NC(=O)c2cc(S(=O)(=O)N3CCC4(CC3)OCCO4)ccc2F)cc1"
99.3

Request the reported viability associated with CC(C)C(OC(=O)c1ccco1)C(=O)NCc1ccccc1 (centres undefined)
99.1

Request the reported viability associated with "[O-][n+]1c2c(nn1-c1ccccc1Cl)-c1nonc1CC2"
105

Request the reported viability associated with "O=C(CSc1nnnn1-c1ccccc1)c1cc2ccccc2oc1=O"
74.2

Request the reported viability associated with CCC(C)NC(=O)CC1Oc2ccc(C)cc2NC1=O (centres undefined)
91.7

Request the reported viability associated with "CCN(C1CCCCC1)S(=O)(=O)c1ccc(OC)c(C)c1"
93.1

Request the reported viability associated with "Cc1nc(SCc2ccc(Br)cc2)[nH]c(=O)c1C"
92.1

Request the reported viability associated with O=C(NC1CCCC1)C1CC1c1ccccc1 (centres undefined)
98.3

Request the reported viability associated with "CCOC(=O)/C=C1\SCC(=O)N1Cc1ccc(Br)cc1"
97.3

Request the reported viability associated with "CCc1ccccc1N=C1SCC(=O)N1C"
97

Request the reported viability associated with "CCN(Cc1cc2cc(OC)ccc2[nH]c1=O)C(=O)c1ccncc1"
99.5

Request the reported viability associated with "COc1ccc(CCNC(=O)c2cnc3scc(C)n3c2=O)cc1OC"
94.8

Request the reported viability associated with "Cn1c(=O)[nH]c2cc3ccccc3cc21"
95.6

Request the reported viability associated with "CCCc1cc(=O)n2[nH]c(-c3ccc(Br)cc3)cc2n1"
73.1
